All figures here come from ChEMBL document CHEMBL2331443.

System: Plasmodium yoelii
Assay: Antimalarial activity against Plasmodium yoelii infected in erythrocytes assessed as inhibition of beta-hematin formation after 16 hrs by BHIA assay
Format: functional, cell-free
Binarize IC50 at 3 µg/mL; below is T, at or above is F.

# example entries with known answers
O=C1CSC(=S)N1CCCCNc1ccnc2cc(Cl)ccc12 | F
O=C1/C(=C/c2ccccc2[N+](=O)[O-])SC(=S)N1CCCNc1ccnc2cc(Cl)ccc12 | F
O=C1/C(=C/c2ccco2)SC(=S)N1CCCCNc1ccnc2cc(Cl)ccc12 | T

Field: below-cutoff. Rule: recorded IC50 strictly less than 3 µg/mL. Subject: O=C1/C(=C/c2cccc([N+](=O)[O-])c2)SC(=S)N1CCCNc1ccnc2cc(Cl)ccc12
F

###

IC50 for assorted compounds
Tested on: Plasmodium yoelii
Assay: Antimalarial activity against Plasmodium yoelii infected in erythrocytes assessed as inhibition of beta-hematin formation after 16 hrs by BHIA assay
Format: functional, cell-free
Number only, in µg/mL; omit the unit.

Some entries whose results are on file:
CN(C)c1ccc(/C=C2\SC(=S)N(CCCCNc3ccnc4cc(Cl)ccc34)C2=O)cc1 | 4.23
COc1cc(/C=C2\SC(=S)N(CCCCNc3ccnc4cc(Cl)ccc34)C2=O)cc(OC)c1OC | 3.93
CCc1ccc(/C=C2\SC(=S)N(CCNc3ccnc4cc(Cl)ccc34)C2=O)cc1 | 6.73

Item COc1ccc(/C=C2\SC(=S)N(CCCCNc3ccnc4cc(Cl)ccc34)C2=O)c2ccccc12 was tested on Plasmodium yoelii; the reported IC50 is 4.05

Item O=C1/C(=C/c2ccc([N+](=O)[O-])cc2)SC(=S)N1CCNc1ccnc2cc(Cl)ccc12 was tested on Plasmodium yoelii; the reported IC50 is 12.8

Item O=C1/C(=C/c2ccc([N+](=O)[O-])cc2)SC(=S)N1CCCNc1ccnc2cc(Cl)ccc12 was tested on Plasmodium yoelii; the reported IC50 is 3.23

Item O=C1/C(=C/c2ccccc2)SC(=S)N1CCCCNc1ccnc2cc(Cl)ccc12 was tested on Plasmodium yoelii; the reported IC50 is 4.03

Item O=C1CSC(=S)N1CCCNc1ccnc2cc(Cl)ccc12 was tested on Plasmodium yoelii; the reported IC50 is 8.16

Item CCc1ccc(/C=C2\SC(=S)N(CCCCNc3ccnc4cc(Cl)ccc34)C2=O)cc1 was tested on Plasmodium yoelii; the reported IC50 is 6.21

###

System: Plasmodium falciparum
Experiment: Antimalarial activity against Plasmodium falciparum 3D7 assessed as parasite growth inhibition after 72 hrs by MSF assay
Assay type: functional, organism-based
Settings: 3D7, 72 h
Binarize IC50 at 60 nM; below is Satisfied, at or above is Not satisfied.

Field: below-cutoff. Rule: recorded IC50 strictly less than 60 nM. Subject: O=C1CSC(=S)N1CCCNc1ccnc2cc(Cl)ccc12
Not satisfied

Field: below-cutoff. Rule: recorded IC50 strictly less than 60 nM. Subject: CCc1ccc(/C=C2\SC(=S)N(CCNc3ccnc4cc(Cl)ccc34)C2=O)cc1
Satisfied

Field: below-cutoff. Rule: recorded IC50 strictly less than 60 nM. Subject: COc1cc(/C=C2\SC(=S)N(CCCNc3ccnc4cc(Cl)ccc34)C2=O)cc(OC)c1OC
Satisfied

Field: below-cutoff. Rule: recorded IC50 strictly less than 60 nM. Subject: O=C1/C(=C/c2ccc([N+](=O)[O-])cc2)SC(=S)N1CCCNc1ccnc2cc(Cl)ccc12
Satisfied

Field: below-cutoff. Rule: recorded IC50 strictly less than 60 nM. Subject: O=C1/C(=C/c2ccc(Cl)cc2)SC(=S)N1CCCNc1ccnc2cc(Cl)ccc12
Not satisfied

###

IC50 for assorted molecules
Tested on: Plasmodium yoelii
Experiment: Antimalarial activity against Plasmodium yoelii infected in erythrocytes assessed as inhibition of beta-hematin formation after 16 hrs by BHIA assay
Type: functional, cell-free
Report the figure along with its unit, number first.

Some entries whose results are on file:
CCN(CC)CCCC(C)Nc1ccnc2cc(Cl)ccc12 (configuration not stated) [CHLOROQUINE] | 4.3 µg/mL
O=C1/C(=C/c2ccc(F)cc2)SC(=S)N1CCCNc1ccnc2cc(Cl)ccc12 | 4.3 µg/mL
CN(C)c1ccc(/C=C2\SC(=S)N(CCCNc3ccnc4cc(Cl)ccc34)C2=O)cc1 | 6.35 µg/mL
O=C1/C(=C/c2ccccc2)SC(=S)N1CCNc1ccnc2cc(Cl)ccc12 | 8.21 µg/mL
COc1cc(/C=C2\SC(=S)N(CCCNc3ccnc4cc(Cl)ccc34)C2=O)cc(OC)c1OC | 3.33 µg/mL
COc1cc(/C=C2\SC(=S)N(CCNc3ccnc4cc(Cl)ccc34)C2=O)cc(OC)c1OC | 7.31 µg/mL

Item O=C1CSC(=S)N1CCNc1ccnc2cc(Cl)ccc12 was tested on Plasmodium yoelii; the reported IC50 is 4.9 µg/mL

###

System: Plasmodium yoelii
Experiment: Antimalarial activity against Plasmodium yoelii infected in erythrocytes assessed as inhibition of beta-hematin formation after 16 hrs by BHIA assay
Assay type: functional, cell-free
reported.metric: IC50 (µg/mL)
Number only, in µg/mL; omit the unit.

Some entries whose results are on file:
O=C1/C(=C/c2ccccn2)SC(=S)N1CCNc1ccnc2cc(Cl)ccc12 | 16.5
O=C1/C(=C/c2ccc([N+](=O)[O-])cc2)SC(=S)N1CCCCNc1ccnc2cc(Cl)ccc12 | 17.3
COc1ccc(/C=C2\SC(=S)N(CCCNc3ccnc4cc(Cl)ccc34)C2=O)c2ccccc12 | 2.65
O=C1/C(=C/c2ccncc2)SC(=S)N1CCCCNc1ccnc2cc(Cl)ccc12 | 6.3

In plain terms, O=C1/C(=C/c2ccc(Cl)cc2)SC(=S)N1CCCNc1ccnc2cc(Cl)ccc12 has a documented IC50 of 3.26

###

System: Plasmodium falciparum
Test: Antimalarial activity against Plasmodium falciparum 3D7 assessed as parasite growth inhibition after 72 hrs by MSF assay
Format: functional, organism-based
Conditions: 3D7, 72 h
reported.metric: pIC50
Scale for pIC50: -log10 of concentration given in mol/L; no unit attached.

Some entries whose results are on file:
O=C1/C(=C/c2ccccc2)SC(=S)N1CCNc1ccnc2cc(Cl)ccc12 | 7.23
O=C1CSC(=S)N1CCCCNc1ccnc2cc(Cl)ccc12 | 6.62
COc1cc(/C=C2\SC(=S)N(CCNc3ccnc4cc(Cl)ccc34)C2=O)cc(OC)c1OC | 7.46
CN(C)c1ccc(/C=C2\SC(=S)N(CCCNc3ccnc4cc(Cl)ccc34)C2=O)cc1 | 7.31
O=C1/C(=C/c2ccccc2[N+](=O)[O-])SC(=S)N1CCCNc1ccnc2cc(Cl)ccc12 | 7.42
O=C1/C(=C/c2ccncc2)SC(=S)N1CCCCNc1ccnc2cc(Cl)ccc12 | 7.03

In plain terms, COc1cc(/C=C2\SC(=S)N(CCCCNc3ccnc4cc(Cl)ccc34)C2=O)cc(OC)c1OC has a documented pIC50 of 7.37

In plain terms, O=C1/C(=C/c2ccc([N+](=O)[O-])cc2)SC(=S)N1CCNc1ccnc2cc(Cl)ccc12 has a documented pIC50 of 6.06

In plain terms, O=C1/C(=C/c2ccc([N+](=O)[O-])cc2)SC(=S)N1CCCCNc1ccnc2cc(Cl)ccc12 has a documented pIC50 of 7.40

In plain terms, O=C1/C(=C/c2ccccc2)SC(=S)N1CCCCNc1ccnc2cc(Cl)ccc12 has a documented pIC50 of 7.36

###

System: Plasmodium falciparum
Assay: Antimalarial activity against Plasmodium falciparum 3D7 assessed as parasite growth inhibition after 72 hrs by MSF assay
Assay type: functional, organism-based
Conditions: 3D7, 72 h
reported.metric: pIC50
Scale for pIC50: -log10 of concentration given in mol/L; no unit attached.

Some entries whose results are on file:
CN(C)c1ccc(/C=C2\SC(=S)N(CCCCNc3ccnc4cc(Cl)ccc34)C2=O)cc1 | 7.51
COc1ccc(/C=C2\SC(=S)N(CCCCNc3ccnc4cc(Cl)ccc34)C2=O)c2ccccc12 | 6.55
CCc1ccc(/C=C2\SC(=S)N(CCCCNc3ccnc4cc(Cl)ccc34)C2=O)cc1 | 7.26
O=C1CSC(=S)N1CCNc1ccnc2cc(Cl)ccc12 | 6.74
COc1ccc(/C=C2\SC(=S)N(CCCNc3ccnc4cc(Cl)ccc34)C2=O)c2ccccc12 | 7.04

In plain terms, O=C1/C(=C/c2ccco2)SC(=S)N1CCCCNc1ccnc2cc(Cl)ccc12 has a documented pIC50 of 7.46

In plain terms, O=C1/C(=C/c2cccc([N+](=O)[O-])c2)SC(=S)N1CCCNc1ccnc2cc(Cl)ccc12 has a documented pIC50 of 7.02

In plain terms, O=C1/C(=C/c2ccc(F)cc2)SC(=S)N1CCCNc1ccnc2cc(Cl)ccc12 has a documented pIC50 of 7.03
